biological target: Chromo domain-containing protein 1 (Saccharomyces cerevisiae (strain ATCC 204508 / S288c) (Baker's yeast)) (UniProt P32657); test: ScCHD-1 Enzyme Inhibition Assay; assay type: functional; design: scale not given: in the data most compounds retested in dose-response had high values; conditions: 30 µM
Sequence (P32657 whole entry, the tested form may be a part): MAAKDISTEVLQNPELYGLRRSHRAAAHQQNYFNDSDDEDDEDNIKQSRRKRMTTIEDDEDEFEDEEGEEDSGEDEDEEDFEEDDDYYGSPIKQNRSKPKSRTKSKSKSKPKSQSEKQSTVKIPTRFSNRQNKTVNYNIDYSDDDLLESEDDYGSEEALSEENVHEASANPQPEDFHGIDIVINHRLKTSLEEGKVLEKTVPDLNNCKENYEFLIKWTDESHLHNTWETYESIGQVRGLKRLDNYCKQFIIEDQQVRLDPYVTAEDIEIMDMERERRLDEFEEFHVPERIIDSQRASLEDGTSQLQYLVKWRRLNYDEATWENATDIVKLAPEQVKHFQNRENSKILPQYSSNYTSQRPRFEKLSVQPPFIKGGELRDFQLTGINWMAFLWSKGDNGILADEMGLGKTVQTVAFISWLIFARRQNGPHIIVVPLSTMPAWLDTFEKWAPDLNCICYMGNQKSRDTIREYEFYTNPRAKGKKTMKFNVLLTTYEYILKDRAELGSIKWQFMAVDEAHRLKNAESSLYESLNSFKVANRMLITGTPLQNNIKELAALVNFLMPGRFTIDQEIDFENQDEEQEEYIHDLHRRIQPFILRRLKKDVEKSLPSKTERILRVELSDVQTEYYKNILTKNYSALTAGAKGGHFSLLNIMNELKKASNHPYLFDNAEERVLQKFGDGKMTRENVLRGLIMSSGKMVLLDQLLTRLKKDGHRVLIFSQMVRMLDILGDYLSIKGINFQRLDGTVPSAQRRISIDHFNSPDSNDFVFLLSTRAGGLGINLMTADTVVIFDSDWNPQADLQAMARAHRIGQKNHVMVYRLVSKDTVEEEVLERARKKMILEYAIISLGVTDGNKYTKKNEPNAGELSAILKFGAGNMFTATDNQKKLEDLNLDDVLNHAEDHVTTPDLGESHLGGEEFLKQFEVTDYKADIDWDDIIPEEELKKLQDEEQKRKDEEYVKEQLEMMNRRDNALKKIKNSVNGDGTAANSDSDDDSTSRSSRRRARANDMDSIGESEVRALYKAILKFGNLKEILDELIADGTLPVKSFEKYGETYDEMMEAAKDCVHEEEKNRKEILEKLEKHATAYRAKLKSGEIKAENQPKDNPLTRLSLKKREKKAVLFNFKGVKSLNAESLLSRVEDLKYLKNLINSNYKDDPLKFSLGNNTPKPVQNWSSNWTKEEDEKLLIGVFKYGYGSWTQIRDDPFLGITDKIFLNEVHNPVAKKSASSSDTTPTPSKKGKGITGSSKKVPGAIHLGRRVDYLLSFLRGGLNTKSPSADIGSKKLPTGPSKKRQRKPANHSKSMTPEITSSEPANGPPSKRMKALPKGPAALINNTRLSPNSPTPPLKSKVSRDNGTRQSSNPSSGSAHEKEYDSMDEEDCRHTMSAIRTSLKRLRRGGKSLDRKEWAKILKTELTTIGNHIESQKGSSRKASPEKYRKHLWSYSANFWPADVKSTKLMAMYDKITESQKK

{"compound": "O=C(c1cc[nH]n1)N1CCCC(c2cccc(-n3ccnc3)n2)C1 (stereo not given)", "unit_descriptor": "%", "Percent Effect": -21.6}
{"compound": "CCS(=O)(=O)N1CCCc2ccc(NC(=O)Cc3ccc(F)cc3)cc21", "unit_descriptor": "%", "Percent Effect": -13.3}
{"compound": "O=C(NCCOc1cccc(Cl)c1)C1CC(=O)N(CC2CC2)C1 (stereo not given)", "unit_descriptor": "%", "Percent Effect": -10.9}
{"compound": "Cc1cccc2c1cnn2CCCNC(=O)C(C)C", "unit_descriptor": "%", "Percent Effect": -0.927}
{"compound": "Cc1nnc(NC(=O)CN2CCCC(Cn3cncn3)C2)s1 (stereo not given)", "unit_descriptor": "%", "Percent Effect": -8.83}
{"compound": "Cc1nnc(N2CCC(CNC(=O)OC(C)(C)C)CC2)c(C#N)c1C", "unit_descriptor": "%", "Percent Effect": -16.5}
{"compound": "O=C(CCCc1nnc(-c2ccccc2)o1)N1CCN(CCO)CC1", "unit_descriptor": "%", "Percent Effect": -6.47}
{"compound": "c1cncc(C2COC3(CCN(CC4CC4)CC3)C2)c1 (stereo not given)", "unit_descriptor": "%", "Percent Effect": -3.69}
{"compound": "COc1ccc(OC)c(CCNC(=O)NC(C)Cn2ccnc2)c1 (stereo not given)", "unit_descriptor": "%", "Percent Effect": -5.83}
{"compound": "CN1CCC(NC(=O)NCCNc2ccccn2)CC1", "unit_descriptor": "%", "Percent Effect": -6.11}
{"compound": "c1ccc(OCc2nnc3n2CCN(CC2CCOCC2)C3)nc1", "unit_descriptor": "%", "Percent Effect": -2.56}
{"compound": "O=C(NCCO)C1(Cc2cc(-c3ccc(F)cc3F)no2)CCOCC1", "unit_descriptor": "%", "Percent Effect": -16.7}
{"compound": "Cn1cc(C2CC(=O)NC23CCN(CC2CC2)CC3)cn1 (stereo not given)", "unit_descriptor": "%", "Percent Effect": -6.87}
{"compound": "Cc1cc(C)nc(Nc2cccc(C3CCCN(C)C3)n2)n1 (stereo not given)", "unit_descriptor": "%", "Percent Effect": -16.2}
{"compound": "Cc1noc(C)c1CCC(=O)NC(C)c1nnc2n1CCC2 (stereo not given)", "unit_descriptor": "%", "Percent Effect": -4.65}
{"compound": "Cc1cnn(CCNCc2nnc(C3CC3)o2)c1", "unit_descriptor": "%", "Percent Effect": -8.53}
{"compound": "CCc1nc(C)c([C@H]2CN(C)C[C@@H]2C(=O)NCCc2cnccn2)[nH]1", "unit_descriptor": "%", "Percent Effect": -3.65}
{"compound": "CCn1ccnc1CNCC1CCCN1c1cccnn1 (stereo not given)", "unit_descriptor": "%", "Percent Effect": -8.32}
{"compound": "Cn1cc(C(=O)NC[C@@H]2OC[C@H]3CN(S(C)(=O)=O)CC[C@H]32)cn1", "unit_descriptor": "%", "Percent Effect": -6.34}
{"compound": "Cc1ccc(NC2CCN(C(=O)c3ccc(Cl)o3)CC2)nn1", "unit_descriptor": "%", "Percent Effect": 4.23}
{"compound": "COc1c(C)cnc(CN2CCC(C(=O)N(C)C)CC2)c1C", "unit_descriptor": "%", "Percent Effect": -6.93}
{"compound": "CNC(=O)N1CCc2cc(C(=O)N(C)C)c(NCC3CC3)nc2CC1", "unit_descriptor": "%", "Percent Effect": -1.72}
{"compound": "O=C1COC2(CCN(Cc3ccc(F)cc3)CC2)CN1", "unit_descriptor": "%", "Percent Effect": -6.08}
{"compound": "CCS(=O)(=O)NCCNC(=O)c1cc(Cl)c2c(c1)OCCCO2", "unit_descriptor": "%", "Percent Effect": -5.31}
{"compound": "O=C(C1=CCCCC1)N1CCC2(CC1)COC(COc1ccccn1)C2 (stereo not given)", "unit_descriptor": "%", "Percent Effect": -3.36}
{"compound": "Cc1ccc(NC2CCN(C(=O)c3cc(C(N)=O)cs3)CC2)nn1", "unit_descriptor": "%", "Percent Effect": -4.07}
{"compound": "CS(=O)(=O)N1Cc2ccccc2C2(CCN(C(=O)c3ccno3)CC2)C1", "unit_descriptor": "%", "Percent Effect": -10.6}
{"compound": "CC(NC(=O)NCCCN1CCCCCC1)c1nncn1C (stereo not given)", "unit_descriptor": "%", "Percent Effect": -3.61}
{"compound": "CCOc1ccc(Cl)c(C(=O)N(C)C)n1", "unit_descriptor": "%", "Percent Effect": -2.78}
{"compound": "CN(Cc1ccc(F)cc1)C(=O)CN1CCCC(Cn2cncn2)C1 (stereo not given)", "unit_descriptor": "%", "Percent Effect": -2.65}

---

tested on: Trypanosoma cruzi; assay: Trypanosoma cruzi phosphomannomutase and mannose-1-phosphate guanylyltransferase assay; format: functional; set-up: scale not given: direction of the effect not stated beside the values; settings: 10 µM
Reported Percent Effect values follow for various molecules

{"molecule": "CCC(CC)C(=O)N1CCC2(C1)CN(c1ccccc1)C(=O)CN2C (stereo not given)", "test_target": "Trypanosoma cruzi", "Percent Effect, %": -8.08}
{"molecule": "CCOc1ccnc(N2CCN(C(=O)c3cn[nH]c3CC)CC2)n1", "test_target": "Trypanosoma cruzi", "Percent Effect, %": 0.472}
{"molecule": "Cn1cc(CN2CC[C@H]3OCC[C@@H](C(=O)N4CCCCO4)[C@@H]3C2)cn1", "test_target": "Trypanosoma cruzi", "Percent Effect, %": -0.982}
{"molecule": "CN(Cc1cnn(C)c1)C(=O)Cn1c(CS(C)(=O)=O)nc2ccccc21", "test_target": "Trypanosoma cruzi", "Percent Effect, %": -3.6}
{"molecule": "Cc1csc(N2CCCN(C(=O)c3cnns3)CC2)n1", "test_target": "Trypanosoma cruzi", "Percent Effect, %": -0.803}
{"molecule": "COc1cc(CNCc2c(C)nn(C)c2N(C)C)ccn1", "test_target": "Trypanosoma cruzi", "Percent Effect, %": 4.25}
{"molecule": "Cc1ccc(N2CCN(C(=O)COc3ccccc3)CC2)nn1", "test_target": "Trypanosoma cruzi", "Percent Effect, %": -3.92}
{"molecule": "Cc1cnn(CCNCc2nnc(C3CC3)o2)c1", "test_target": "Trypanosoma cruzi", "Percent Effect, %": 0.746}
{"molecule": "Cc1ccc(CNC(CN2CCN(C)CC2)c2ccccc2)cc1 (stereo not given)", "test_target": "Trypanosoma cruzi", "Percent Effect, %": -2.05}
{"molecule": "Cc1n[nH]c(C)c1NC(=O)CN1CCOC(Cn2cccn2)C1 (stereo not given)", "test_target": "Trypanosoma cruzi", "Percent Effect, %": 6.95}
{"molecule": "CCc1cc(C(=O)N2CCCC2c2nc(C)c(F)c(O)n2)on1 (stereo not given)", "test_target": "Trypanosoma cruzi", "Percent Effect, %": 0.197}
{"molecule": "CS(=O)(=O)NC[C@]12COC[C@H]1CN(C(=O)c1ccoc1)C2", "test_target": "Trypanosoma cruzi", "Percent Effect, %": -1.87}
{"molecule": "Cc1nnc2n1CCN(CCOc1ccccc1)C2", "test_target": "Trypanosoma cruzi", "Percent Effect, %": -0.308}
{"molecule": "CC(C)c1nc(CN(C)C2CCN(Cc3nc(C4CC4)no3)C2)no1 (stereo not given)", "test_target": "Trypanosoma cruzi", "Percent Effect, %": -8.42}
{"molecule": "Cc1n[nH]c(=O)c2c(NC(=O)CN3CCC(O)CC3)oc(C)c12", "test_target": "Trypanosoma cruzi", "Percent Effect, %": -8.17}
{"molecule": "Cc1cc(C)n(CC2CCCN2CCCS(=O)(=O)N(C)C)n1 (stereo not given)", "test_target": "Trypanosoma cruzi", "Percent Effect, %": 5.99}
{"molecule": "CN(Cc1ccccn1)C1COC2(CCN(Cc3nccs3)CC2)C1 (stereo not given)", "test_target": "Trypanosoma cruzi", "Percent Effect, %": 1.35}
{"molecule": "CN1CCC/C1=N\\S(=O)(=O)c1ccc(NC(=O)c2cccs2)cc1", "test_target": "Trypanosoma cruzi", "Percent Effect, %": 3.73}
{"molecule": "Cn1cnc2c1CCN(Cc1cccc(OCC(N)=O)c1)C2", "test_target": "Trypanosoma cruzi", "Percent Effect, %": 7.42}
{"molecule": "Cc1ccc(N(CC(=O)c2ccc(Br)cc2)C2=NCCCCC2)cc1", "test_target": "Trypanosoma cruzi", "Percent Effect, %": 5.55}
{"molecule": "Cc1cc(C)n(CC2CN(Cc3cccc(C(N)=O)c3)CCO2)n1 (stereo not given)", "test_target": "Trypanosoma cruzi", "Percent Effect, %": 4.69}
{"molecule": "Cn1cnc2c1CCN(Cc1ccc(C(=O)N3CCCC3)cc1)C2", "test_target": "Trypanosoma cruzi", "Percent Effect, %": 1.97}
{"molecule": "CC(=O)NCC(=O)N1CCOC2(CCCN(c3cccnc3)C2)C1 (stereo not given)", "test_target": "Trypanosoma cruzi", "Percent Effect, %": -6.05}
{"molecule": "CNC(=O)CS(=O)(=O)Cc1coc(-c2ccc(OC)cc2)n1", "test_target": "Trypanosoma cruzi", "Percent Effect, %": -1.35}
{"molecule": "COCCN1CCCN(C(=O)NC(C)Cn2cccn2)CC1 (stereo not given)", "test_target": "Trypanosoma cruzi", "Percent Effect, %": -8.77}
{"molecule": "O=C(CCN1CCOC(Cn2cccn2)C1)NC1CCCC1 (stereo not given)", "test_target": "Trypanosoma cruzi", "Percent Effect, %": 3.59}
{"molecule": "Cc1nc(CN2CCN(Cc3nccn3C)CC2)no1", "test_target": "Trypanosoma cruzi", "Percent Effect, %": 3.21}
{"molecule": "Cn1ccnc1CN1C[C@@H](CN2CCC(CO)CC2)[C@@H](CO)C1", "test_target": "Trypanosoma cruzi", "Percent Effect, %": 6.37}
{"molecule": "NCC1Cn2nnc(-c3cccc(F)c3)c2CO1 (stereo not given)", "test_target": "Trypanosoma cruzi", "Percent Effect, %": 8.75}
{"molecule": "O=C(Cc1csc(-c2nnc[nH]2)n1)N1CCCC1Cn1cccn1 (stereo not given)", "test_target": "Trypanosoma cruzi", "Percent Effect, %": -0.402}
{"molecule": "O=C(Cn1cc(-c2ccccc2)ncc1=O)Nc1nnc[nH]1", "test_target": "Trypanosoma cruzi", "Percent Effect, %": 2.42}
{"molecule": "Cc1ccc(C(=O)N2C[C@@H]3OCCN(CCN4CCCC4)[C@@H]3C2)cn1", "test_target": "Trypanosoma cruzi", "Percent Effect, %": -2.25}
{"molecule": "CCn1cc(CN2CCC(c3nnc(CN(C)C)n3CC)CC2)cn1", "test_target": "Trypanosoma cruzi", "Percent Effect, %": -4.03}
{"molecule": "CS(=O)(=O)N1CCC(Oc2cnccn2)CC1", "test_target": "Trypanosoma cruzi", "Percent Effect, %": 2.46}
{"molecule": "O=C1NCc2ccc(NC(=O)C3CCCN3c3nccs3)cc21 (stereo not given)", "test_target": "Trypanosoma cruzi", "Percent Effect, %": 0.0939}
{"molecule": "COCCOCc1cccc(NC(=O)N2CCCC2c2ccncc2)c1 (stereo not given)", "test_target": "Trypanosoma cruzi", "Percent Effect, %": -4.02}
{"molecule": "Cc1c(F)cc(C(=O)O)cc1S(=O)(=O)Nc1cccc(C(F)F)c1", "test_target": "Trypanosoma cruzi", "Percent Effect, %": 1.03}
{"molecule": "COC1CCCN(C(=O)Nc2nc(C)n(C)n2)C1 (stereo not given)", "test_target": "Trypanosoma cruzi", "Percent Effect, %": 1.27}
{"molecule": "COCCOc1ncccc1C(=O)Nc1ccc(-n2cncn2)c(F)c1", "test_target": "Trypanosoma cruzi", "Percent Effect, %": 0}
{"molecule": "COCCN1CCC(CNC(=O)c2cc(C)cc(C)c2)C1 (stereo not given)", "test_target": "Trypanosoma cruzi", "Percent Effect, %": 6.26}
